tested on: KB cells (human naso-pharangeal carcinoma cells); assay: EGFR driven KB cell proliferation assay, Test (b); format: cell-based; details: 96 h, EGF 1 ng/ml, incubation for 4 days, MTT
Measured IC50, listed per entry.
Report the value in nM with no unit label.

// known answers, use as guide
molecule	test target	IC50, nM
COc1cc2ncnc(Nc3ccc(F)c(Cl)c3)c2cc1CN1CCC[C@@H]1C(=O)NCC#N	KB cells (human naso-pharangeal carcinoma cells)	143
COc1cc2ncnc(Nc3cccc(Cl)c3F)c2cc1CN1CSC[C@H]1C(N)=O	KB cells (human naso-pharangeal carcinoma cells)	50

Consider now this further molecule.
// sample COCCN1CCN(Cc2cc3c(Nc4cccc(Cl)c4F)ncnc3cc2OC)C(C(N)=O)C1 (stereo not drawn) , its IC50 was 160

Taken from patent US20080234263A1.
